meta.source: ChEMBL document CHEMBL1138484

For each record, write down the corresponding pIC50.
# procedure-details: Inhibition of HIV recombinant integrase strand transfer assay
# Parameters: species or system Human immunodeficiency virus
Expect pIC50 as a plain number equal to -log10 of the molar concentration.

Prompt line: Query (compound): `COCCNC(=O)c1c(O)c2ncc(Cc3ccc(F)cc3)cc2[nH]c1=O` ; field requested: pIC50
Response line: 8.30

Prompt line: Please do the same for `CCNC(=O)c1c(O)c2ncc(Cc3ccc(F)cc3)cc2n(C)c1=O` as well.
Response line: 8.40

Prompt line: Please do the same for `CNC(=O)c1c(O)c2ncc(Cc3ccc(F)cc3)cc2n(C)c1=O` as well.
Response line: 8.39

Prompt line: Please do the same for `CCOC(=O)c1c(O)c2ncc(Cc3ccc(F)cc3)cc2[nH]c1=O` as well.
Response line: 7.89

Prompt line: Please do the same for `CC(C)CNC(=O)c1c(O)c2ncc(Cc3ccc(F)cc3)cc2[nH]c1=O` as well.
Response line: 8.22

Prompt line: Please do the same for `CCOC(=O)c1c(O)c2ncc(Cc3ccccc3)cc2[nH]c1=O` as well.
Response line: 8.52

Prompt line: Please do the same for `COCCNC(=O)c1c(O)c2ncc(Cc3ccc(F)cc3)cc2n(C)c1=O` as well.
Response line: 8.40

Prompt line: Please do the same for `CCOC(=O)c1c(O)c2ncc(Cc3ccc(F)cc3)cc2n(C)c1=O` as well.
Response line: 8.22

Prompt line: Please do the same for `CNC(=O)c1c(O)c2ncc(Cc3ccc(F)cc3)cc2[nH]c1=O` as well.
Response line: 8.22

Prompt line: Please do the same for `NC(=O)c1c(O)c2ncc(Cc3ccc(F)cc3)cc2[nH]c1=O` as well.
Response line: 7.35

Prompt line: Please do the same for `CCOC(=O)c1c(O)c2ncc(Cc3ccc(F)cc3)cc2n(CC(C)C)c1=O` as well.
Response line: 7.66

Prompt line: Please do the same for `COCCNC(=O)c1c(O)c2ncc(Cc3ccccc3)cc2[nH]c1=O` as well.
Response line: 8.15

Prompt line: Please do the same for `O=C(NC1CC1)c1c(O)c2ncc(Cc3ccc(F)cc3)cc2[nH]c1=O` as well.
Response line: 8.00

Prompt line: Please do the same for `CCOC(=O)c1c(O)c2ncc(Cc3ccc(F)cc3)cc2n(CC2CC2)c1=O` as well.
Response line: 7.82

Prompt line: Please do the same for `COC(=O)c1c(O)c2ncc(Cc3ccccc3)cc2[nH]c1=O` as well.
Response line: 8.10
